Test system: HuT78
experiment: Cytotoxicity against human HUT78 cells after 72 hrs by MTS assay
Type: functional
condition_set: HuT78, 72 h
GI50 less than 5 µM is T; GI50 greater than or equal to 5 µM is F.

molecule	label_value
O=c1cc(C2CCCC2)cccc1O	F
CCC(C)c1cccc(O)c(=O)c1 (centres undefined)	T
COc1cccc(C(C)C)cc1=O	F
COc1ccc(OC)c(-c2ccccc(O)c2=O)c1	T
O=C(CCCCCCC(=O)Nc1ccccc1)NO [VORINOSTAT]	T
CC(C)(C)c1cccc(O)c(=O)c1	F

Query: Is 5 µM strictly greater than the molecule's reported GI50? molecule: COc1ccc(-c2ccccc(O)c2=O)cc1
Response: T

Query: Is 5 µM strictly greater than the molecule's reported GI50? molecule: COc1ccc(-c2cccc(O)c(=O)c2)cc1
Response: F

Query: Is 5 µM strictly greater than the molecule's reported GI50? molecule: O=c1cc(-c2ccccc2)cccc1O
Response: T

Query: Is 5 µM strictly greater than the molecule's reported GI50? molecule: COc1ccc(-c2ccccc(O)c2=O)c(OC)c1OC
Response: T

Query: Is 5 µM strictly greater than the molecule's reported GI50? molecule: O=c1c(O)ccccc1-c1ccccc1
Response: F

Query: Is 5 µM strictly greater than the molecule's reported GI50? molecule: COc1ccc(OC)c(-c2cccc(O)c(=O)c2)c1
Response: F

Query: Is 5 µM strictly greater than the molecule's reported GI50? molecule: O=c1c(O)ccccc1-c1ccc2ccccc2c1
Response: T

Recorded values, source ChEMBL document CHEMBL2407068.
